The reported measurements were obtained from paper PMC10844744.

target: the molecule itself; assay: far-Western, overlay or dot blot; synthetic DPRs gently stirred in 1x PBS for 6 days, aliquots at days 1, 2, 4 and 6; 1 ul of 1 mg/ml dotted on nitrocellulose; oligomers read out with oligomer-specific antibody A11-19 (1:8000), fibrillar aggregates with OC (1:10,000)
MEASURED_METRIC: binding result

# count of solved cases: 5
# PROTEIN, ENDPOINT_VALUE
rows = [
    ("GAGAGA (source: synthetic peptide (Scenic Biotech)) [glycine–alanine dipeptide protein repeat, 3 repeats (GA3)]", "binds"),
    ("PRPRPR (source: synthetic peptide (Scenic Biotech)) [proline–arginine dipeptide protein repeat, 3 repeats (PR3)]", "binds"),
    ("GAGAGAGAGAGA (source: synthetic peptide (Scenic Biotech)) [glycine–alanine dipeptide protein repeat, 6 repeats (GA6)]", "binds"),
    ("PRPRPRPRPRPR (source: synthetic peptide (Scenic Biotech)) [proline–arginine dipeptide protein repeat, 6 repeats (PR6)]", "binds"),
    ("GRGRGRGRGRGR (source: synthetic peptide (Scenic Biotech)) [glycine–arginine dipeptide protein repeat, 6 repeats (GR6)]", "binds"),
]

Now consider the entry below.
Please look at this protein and report its binding result: GRGRGR (source: synthetic peptide (Scenic Biotech)) [glycine–arginine dipeptide protein repeat, 3 repeats (GR3)]
binds
